# Test system: Pseudomonas aeruginosa
# method description: Antimicrobial activity against colistin resistant Pseudomonas aeruginosa 7197/19 assessed as bacterial growth inhibition incubated for 20 hrs by broth microdilution method
# Type: functional
Positions of bridges follow the written chain, without caps; N, C: chain ends. Non-standard residues stand in square brackets, D forms with d. Residues, ends and D or L forms follow the SMILES beside them. *: point of attachment. dPhe(3,4,5-F3) = N[C@H](Cc1cc(F)c(F)c(F)c1)C(=O)O; dPhe(4-Cl) = N[C@H](Cc1ccc(Cl)cc1)C(=O)O; Phe(3-F) = N[C@@H](Cc1cccc(F)c1)C(=O)O; d(hPhe) = N[C@H](CCc1ccccc1)C(=O)O; dAoc(2) = CCCCCC[C@@H](N)C(=O)O; Octanoyl = CCCCCCCC(=O)*; Dab = NCC[C@H](N)C(=O)O
Reported values of MIC for individual entries
observable: MIC (mg/L)

>>> reading("CCCCCCCC(=O)N[C@@H](CCN)C(=O)N[C@H](C(=O)N[C@@H](CCN)C(=O)N[C@H]1CCNC(=O)[C@H]([C@@H](C)O)NC(=O)[C@H](CCN)NC(=O)[C@H](CCN)NC(=O)[C@H](Cc2ccccc2)NC(=O)[C@@H](CCc2ccccc2)NC(=O)[C@H](CCN)NC1=O)[C@@H](C)O (Octanoyl-[Dab]T[Dab][Dab][Dab][d(hPhe)]F[Dab][Dab]T; lactam 4-C)")
0.25
>>> reading("CCCCCCCC(=O)N[C@@H](CCN)C(=O)N[C@H](C(=O)N[C@@H](CCN)C(=O)N[C@H]1CCNC(=O)[C@H]([C@@H](C)O)NC(=O)[C@H](CCN)NC(=O)[C@H](CCN)NC(=O)[C@H](Cc2ccccc2)NC(=O)[C@@H](CCCCCC)NC(=O)[C@H](CCN)NC1=O)[C@@H](C)O (Octanoyl-[Dab]T[Dab][Dab][Dab][dAoc(2)]F[Dab][Dab]T; lactam 4-C)")
0.25
>>> reading("CCCCCCCC(=O)N[C@@H](CCN)C(=O)N[C@H](C(=O)N[C@@H](CCN)C(=O)N[C@H]1CCNC(=O)[C@H]([C@@H](C)O)NC(=O)[C@H](CCN)NC(=O)[C@H](CCN)NC(=O)[C@H](Cc2cccc(F)c2)NC(=O)[C@@H](CC(C)C)NC(=O)[C@H](CCN)NC1=O)[C@@H](C)O (Octanoyl-[Dab]T[Dab][Dab][Dab][dL][Phe(3-F)][Dab][Dab]T; lactam 4-C)")
1
>>> reading("CC(=O)N[C@H](Cc1ccc(Br)cc1)C(=O)N[C@@H](CCN)C(=O)N[C@H](C(=O)N[C@@H](CCN)C(=O)N[C@H]1CCNC(=O)[C@H]([C@@H](C)O)NC(=O)[C@H](CCN)NC(=O)[C@H](CCN)NC(=O)[C@H](CC(C)C)NC(=O)[C@@H](Cc2ccccc2)NC(=O)[C@@H](CCN)NC1=O)[C@H](C)O")
16
>>> reading("CCCCCCCC(=O)N[C@@H](CCN)C(=O)N[C@H](C(=O)N[C@@H](CCN)C(=O)N[C@H]1CCNC(=O)[C@H]([C@@H](C)O)NC(=O)[C@H](CCN)NC(=O)[C@H](CCN)NC(=O)[C@H](CC(C)C)NC(=O)[C@@H](Cc2ccc(Cl)cc2)NC(=O)[C@H](CCN)NC1=O)[C@@H](C)O (Octanoyl-[Dab]T[Dab][Dab][Dab][dPhe(4-Cl)]L[Dab][Dab]T; lactam 4-C)")
0.25
>>> reading("CCCCCCCC(=O)N[C@@H](CCN)C(=O)N[C@H](C(=O)N[C@@H](CCN)C(=O)N[C@H]1CCNC(=O)[C@H]([C@@H](C)O)NC(=O)[C@H](CCN)NC(=O)[C@H](CCN)NC(=O)[C@H](CC(C)C)NC(=O)[C@@H](Cc2cc(F)c(F)c(F)c2)NC(=O)[C@H](CCN)NC1=O)[C@@H](C)O (Octanoyl-[Dab]T[Dab][Dab][Dab][dPhe(3,4,5-F3)]L[Dab][Dab]T; lactam 4-C)")
0.25

###

# method description: Hemolytic activity in human RBC at 400 ug/ml after 1 hr
# Format: toxicity, cell-based, Erythrocyte
# reported conditions: red blood cells (erythrocytes), at 400 µg/mL, read-out: Activity
Positions of bridges follow the written chain, without caps; N, C: chain ends. Non-standard residues stand in square brackets, D forms with d. Residues, ends and D or L forms follow the SMILES beside them. *: point of attachment. dPhe(F5) = N[C@H](Cc1c(F)c(F)c(F)c(F)c1F)C(=O)O; Benzoyl(4-Ph) = O=C(c1ccc(-c2ccccc2)cc1)*; Octanoyl = CCCCCCCC(=O)*; Dab = NCC[C@H](N)C(=O)O
observable: hemolysis at 1 h, 400 ug/ml

>>> reading("CC[C@H](C)[C@@H]1NC(=O)[C@@H](CC(C)C)NC(=O)[C@H](CCN)NC(=O)[C@@H](NC(=O)[C@@H](CO)NC(=O)[C@@H](NC(=O)[C@H](CCN)NC(=O)c2ccc(-c3ccccc3)cc2)[C@@H](C)O)CCNC(=O)[C@H](CC(C)C)NC(=O)[C@H](CCN)NC(=O)[C@H](CCN)NC1=O ({Benzoyl(4-Ph)}-[Dab]T[dS][Dab][Dab][dL]I[Dab][Dab]L; lactam 4-C)")
"< 10%"
>>> reading("CCCCCCCC(=O)N[C@@H](CCN)C(=O)N[C@H](C(=O)N[C@@H](CCN)C(=O)N[C@H]1CCNC(=O)[C@H]([C@@H](C)O)NC(=O)[C@H](CCN)NC(=O)[C@H](CCN)NC(=O)[C@H](CC(C)C)NC(=O)[C@@H](Cc2c(F)c(F)c(F)c(F)c2F)NC(=O)[C@H](CCN)NC1=O)[C@@H](C)O (Octanoyl-[Dab]T[Dab][Dab][Dab][dPhe(F5)]L[Dab][Dab]T; lactam 4-C)")
"< 10%"
>>> reading("CCCCCCCC(=O)N[C@@H](CCN)C(=O)N[C@H](C(=O)N[C@@H](CCN)C(=O)N[C@H]1CCNC(=O)[C@H]([C@@H](C)O)NC(=O)[C@H](CCN)NC(=O)[C@H](CCN)NC(=O)[C@H](CC(C)C)NC(=O)[C@@H](Cc2ccc(Br)cc2)NC(=O)[C@H](CCN)NC1=O)[C@@H](C)O")
"< 10%"

###

# System: Escherichia coli
# method description: Antibacterial activity against Escherichia coli ATCC 25922 assessed as bacterial growth inhibition incubated for 20 hrs by broth microdilution method
# Format: functional
Positions of bridges follow the written chain, without caps; N, C: chain ends. Non-standard residues stand in square brackets, D forms with d. Residues, ends and D or L forms follow the SMILES beside them. *: point of attachment. dPhe(4-F) = N[C@H](Cc1ccc(F)cc1)C(=O)O; Octanoyl = CCCCCCCC(=O)*; Dab = NCC[C@H](N)C(=O)O
observable: MIC

>>> reading("CC(=O)N[C@H](Cc1ccc(F)cc1)C(=O)N[C@@H](CCN)C(=O)N[C@H](C(=O)N[C@@H](CCN)C(=O)N[C@H]1CCNC(=O)[C@H]([C@@H](C)O)NC(=O)[C@H](CCN)NC(=O)[C@H](CCN)NC(=O)[C@H](CC(C)C)NC(=O)[C@@H](Cc2ccccc2)NC(=O)[C@@H](CCN)NC1=O)[C@H](C)O")
"0.25 µg/mL"
>>> reading("CCCCCCCC(=O)N[C@@H](CCN)C(=O)N[C@H](C(=O)N[C@@H](CCN)C(=O)N[C@H]1CCNC(=O)[C@H]([C@@H](C)O)NC(=O)[C@H](CCN)NC(=O)[C@H](CCN)NC(=O)[C@H](CC(C)C)NC(=O)[C@@H](Cc2ccc(F)cc2)NC(=O)[C@H](CCN)NC1=O)[C@@H](C)O (Octanoyl-[Dab]T[Dab][Dab][Dab][dPhe(4-F)]L[Dab][Dab]T; lactam 4-C)")
"0.03 µg/mL"

###

# System: Escherichia coli
# method description: Antibacterial activity against […] Escherichia coli ATCC 25922 assessed as bacterial growth inhibition incubated for 20 hrs by broth microdilution method
# Assay type: functional
Positions of bridges follow the written chain, without caps; N, C: chain ends. Non-standard residues stand in square brackets, D forms with d. Residues, ends and D or L forms follow the SMILES beside them. *: point of attachment. Benzoyl(4-Ph) = O=C(c1ccc(-c2ccccc2)cc1)*; Gly(octyl) = CCCCCCCC[C@H](N)C(=O)O; hLeu = CC(C)CC[C@H](N)C(=O)O; Octanoyl = CCCCCCCC(=O)*; Dab = NCC[C@H](N)C(=O)O
Recorded measurements of MIC, one per entry
observable: MIC (µg/mL)

>>> reading("CC[C@H](C)[C@@H]1NC(=O)[C@@H](CC(C)C)NC(=O)[C@H](CCN)NC(=O)[C@@H](NC(=O)[C@@H](CO)NC(=O)[C@@H](NC(=O)[C@H](CCN)NC(=O)c2ccc(-c3ccccc3)cc2)[C@@H](C)O)CCNC(=O)[C@H](CC(C)C)NC(=O)[C@H](CCN)NC(=O)[C@H](CCN)NC1=O ({Benzoyl(4-Ph)}-[Dab]T[dS][Dab][Dab][dL]I[Dab][Dab]L; lactam 4-C)")
2
>>> reading("CCCCCCCC[C@@H]1NC(=O)[C@@H](Cc2ccccc2)NC(=O)[C@H](CCN)NC(=O)[C@@H](NC(=O)[C@H](CCN)NC(=O)[C@@H](NC(=O)[C@H](CCN)NC(=O)CCCCCCC)[C@@H](C)O)CCNC(=O)[C@H]([C@@H](C)O)NC(=O)[C@H](CCN)NC(=O)[C@H](CCN)NC1=O (Octanoyl-[Dab]T[Dab][Dab][Dab][dF][Gly(octyl)][Dab][Dab]T; lactam 4-C)")
0.5
>>> reading("CCCCCCCC(=O)N[C@@H](CCN)C(=O)N[C@H](C(=O)N[C@@H](CCN)C(=O)N[C@H]1CCNC(=O)[C@H]([C@@H](C)O)NC(=O)[C@H](CCN)NC(=O)[C@H](CCN)NC(=O)[C@H](CCC(C)C)NC(=O)[C@@H](Cc2ccccc2)NC(=O)[C@H](CCN)NC1=O)[C@@H](C)O (Octanoyl-[Dab]T[Dab][Dab][Dab][dF][hLeu][Dab][Dab]T; lactam 4-C)")
0.125
>>> reading("CCCCCCCC(=O)N[C@@H](CCN)C(=O)N[C@H](C(=O)N[C@@H](CCN)C(=O)N[C@H]1CCNC(=O)[C@H]([C@@H](C)O)NC(=O)[C@H](CCN)NC(=O)[C@H](CCN)NC(=O)[C@H](CC(C)C)NC(=O)[C@@H](Cc2ccc(Br)cc2)NC(=O)[C@H](CCN)NC1=O)[C@@H](C)O")
0.125
